B1: library; a variant is named by its letters at N, in order (parent)
chain: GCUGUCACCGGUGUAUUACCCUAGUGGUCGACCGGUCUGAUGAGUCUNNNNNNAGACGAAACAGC

- Variants of: B1
- method-description: normalized RNA/DNA level with ligand (relative to sTRSVctl = 100) (log10 (% of sTRSVctl)); ligand: hypoxanthine (xanthine aptamer); higher = less ribozyme self-cleavage, higher mRNA level
- details: ligand concentration (+) RNA-Seq: 5 mM, HEK293T, reporter: mCherry (pCS4076), ligand present: yes
endpoint: normalized RNA/DNA level with ligand (log10)
Could you keep your reply to the number by itself?

As a guide, the following entries are already answered.
variant-string | measured-result
GUGAUC | 1.93
AGUCGA | 1.95
CAUGUU | 1.94
UGCCGC | 2.01
UCUUUA | 1.96
ACGCUA | 1.95
UAGGAC | 1.93
UGCUGC | 1.97

Would you kindly share the measured normalized RNA/DNA level with ligand (log10) for `CAGUCG` ?
1.98

Would you kindly share the measured normalized RNA/DNA level with ligand (log10) for `UAACAG` ?
1.85

Would you kindly share the measured normalized RNA/DNA level with ligand (log10) for `GUGGGG` ?
1.84

Would you kindly share the measured normalized RNA/DNA level with ligand (log10) for `CGGUAA` ?
1.81

Would you kindly share the measured normalized RNA/DNA level with ligand (log10) for `ACCUAC` ?
1.92

Would you kindly share the measured normalized RNA/DNA level with ligand (log10) for `AAUGGU` ?
1.93

Would you kindly share the measured normalized RNA/DNA level with ligand (log10) for `AGGUGA` ?
1.86

Would you kindly share the measured normalized RNA/DNA level with ligand (log10) for `CUCGUG` ?
1.94

Would you kindly share the measured normalized RNA/DNA level with ligand (log10) for `CAAUUA` ?
1.89

Would you kindly share the measured normalized RNA/DNA level with ligand (log10) for `GCCGCC` ?
1.99

Data credit: the supplement of paper PMC6757056
